Reference source: the supplement of paper PMC8967900

This listing pairs compounds with measured selective drug sensitivity score.
- System: P30-OHKUBO
- Assay Notes: selective drug sensitivity score (sDSS, relative to normal bone marrow) (sDSS (score)); higher = more potent and effective on the cell line relative to normal bone marrow cells;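 also: ALL cell lines in 384-well plates, five doses spanning 10,000-fold, each plate scaled between vehicle and 100 µmol/L benzalkonium chloride controls, sDSS an adapted area-under-curve metric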
- Experimental Conditions: 72 h

// below: answered compounds
CC[C@H](CC#N)OC(=O)N[C@@H](C)c1cccc(NC(=O)Nc2ccc(-c3cnco3)c(OC)c2)c1 [AVN944] (top concentration 10000 nM); 13.8
Cc1sc2c(c1C)C(c1ccc(Cl)cc1)=N[C@@H](CC(=O)NCCCCNC(=O)COc1cccc3c1C(=O)N(C1CCC(=O)NC1=O)C3=O)c1nnc(C)n1-2 (some centres not stated) [dBET1] (top concentration 10000 nM); 2.82
O=C(NOCCO)c1ccc2cncn2c1Nc1ccc(I)cc1F [GDC-0623] (top concentration 2500 nM); -2.4
CC(=O)c1cc2c(o1)C(=O)c1ccccc1C2=O [Napabucasin] (top concentration 20000 nM); 0.42

Give the reported selective drug sensitivity score for CCN(CC)CCNC(=O)c1c(C)[nH]c(/C=C2\C(=O)Nc3ccc(-c4csc(-c5ccccc5)n4)cc32)c1C [Amcasertib] (top concentration 10000 nM) (system: P30-OHKUBO).
3.9

What do we get for CCC1(c2ccc(N)cc2)CCC(=O)NC1=O (configuration not stated) [Aminoglutethimide] (top concentration 10000 nM) ?
0

What do we get for COc1cc([C@@H]2c3cc4c(cc3[C@@H](O[C@@H]3O[C@@H]5CO[C@@H](C)O[C@H]5[C@H](O)[C@H]3O)[C@H]3COC(=O)[C@H]23)OCO4)cc(OC)c1O [Etoposide] (top concentration 10000 nM) ?
16.3

What do we get for C=CC(=O)Nc1cccc(Nc2nc(Nc3ccc(N4CCN(C(C)=O)CC4)cc3OC)ncc2C(F)(F)F)c1 [Rociletinib] (top concentration 10000 nM) ?
4.24

What do we get for CC(=O)c1c(C)c2cnc(Nc3ccc(N4CCNCC4)cn3)nc2n(C2CCCC2)c1=O [Palbociclib] (top concentration 10000 nM) ?
9.58

What do we get for Cn1ncc(Cl)c1-c1cc(C(=O)N[C@H](CN)Cc2ccc(F)c(F)c2)oc1Cl [Uprosertib] (top concentration 10000 nM) ?
6.5

What do we get for O=C(O)CC1CC(c2ccccc2)=NO1 (configuration not stated) [VGX-1027] (top concentration 10000 nM) ?
-0.04

What do we get for CN1CCC(CNc2ccc3ncc(-c4cccc(OC(F)(F)F)c4)n3n2)CC1 [SGI-1776] (top concentration 10000 nM) ?
0.12

* * *

- Tested on: MHH-CALL-4
- Assay Notes: selective drug sensitivity score (sDSS, relative to normal bone marrow) (sDSS (score)); higher = more potent and effective on the cell line relative to normal bone marrow cells
- Experimental Conditions: 72 h
This listing pairs molecules with measured selective drug sensitivity score.

// below: answered molecules
COc1cc(Nc2ncc3c(n2)-c2ccc(Cl)cc2C(c2c(F)cccc2OC)=NC3)ccc1C(=O)O [Alisertib] (top concentration 10000 nM); -5.62
COc1cc([C@@H]2c3cc4c(cc3[C@@H](O[C@@H]3O[C@@H]5CO[C@@H](C)O[C@H]5[C@H](O)[C@H]3O)[C@H]3COC(=O)[C@H]23)OCO4)cc(OC)c1O [Etoposide] (top concentration 10000 nM); 10.2
CN1CC[C@@H](NC(=O)Nc2ccc(C#N)cc2)C[C@@H]1c1nc2ccccc2[nH]1 [Glasdegib] (top concentration 1000 nM); 0
CCS(=O)(=O)N1CCN(c2ccc(Nc3ncc(C(N)=O)c(NC4CC4)n3)cc2)CC1 [Cerdulatinib] (top concentration 10000 nM); -5.46
CN1CCN(C(=O)c2ccc3cc(CCNc4ncnc5ccc(C#N)cc45)ccc3c2)CC1 [Senexin_B] (top concentration 1000 nM); -0.6
CC(C)N(CCCNC(=O)Nc1ccc(C(C)(C)C)cc1)C[C@H]1O[C@@H](n2cc(Br)c3c(N)ncnc32)[C@H](O)[C@@H]1O [SGC0946] (top concentration 10000 nM); -1.12
O=c1ncn2nc(Sc3ccc(F)cc3F)ccc2c1-c1c(Cl)cccc1Cl [Neflamapimod] (top concentration 10000 nM); 0
Nc1ccn([C@@H]2O[C@H](CO)[C@@H](O)C2(F)F)c(=O)n1 [Gemcitabine] (top concentration 1000 nM); 12.9

Could you tell me which selective drug sensitivity score is on file for CN[C@@H](C)C(=O)N[C@H](C(=O)N1CCC[C@H]1c1nc(C(=O)c2ccc(F)cc2)cs1)C1CCCCC1 [NVP-LCL161] (top concentration 25000 nM) ?
1.58

What do we get for CC(C)C[C@H](NC(=O)[C@@H](COC(C)(C)C)NC(=O)[C@H](Cc1ccc(O)cc1)NC(=O)[C@H](CO)NC(=O)[C@H](Cc1c[nH]c2ccccc12)NC(=O)[C@H](Cc1cnc[nH]1)NC(=O)[C@@H]1CCC(=O)N1)C(=O)N[C@@H](CCCNC(=N)N)C(=O)N1CCC[C@H]1C(=O)NNC(N)=O [Goserelin] (top concentration 10000 nM) ?
0.14

What do we get for COc1cc(N2CCN(C)CC2)ccc1Nc1nccc(-c2cn(C)c3cnccc23)n1 [AZ191] (top concentration 10000 nM) ?
1.98

What do we get for O=C1CCC(N2C(=O)c3ccccc3C2=O)C(=O)N1 (stereo not drawn) [Thalidomide] (top concentration 10000 nM) ?
-0.14

What do we get for CNC(=O)c1ccc(C)c(-n2c(C)cc(OCc3ccc(F)cc3F)c(Br)c2=O)c1 (top concentration 1000 nM) ?
5
